These entries and their values trace back to patent US8278337B2.

In this section we review reported IC50 values for a set of compounds.
- targetEntity: UniProt P45983
- Sequence (P45983 whole entry, species assumed): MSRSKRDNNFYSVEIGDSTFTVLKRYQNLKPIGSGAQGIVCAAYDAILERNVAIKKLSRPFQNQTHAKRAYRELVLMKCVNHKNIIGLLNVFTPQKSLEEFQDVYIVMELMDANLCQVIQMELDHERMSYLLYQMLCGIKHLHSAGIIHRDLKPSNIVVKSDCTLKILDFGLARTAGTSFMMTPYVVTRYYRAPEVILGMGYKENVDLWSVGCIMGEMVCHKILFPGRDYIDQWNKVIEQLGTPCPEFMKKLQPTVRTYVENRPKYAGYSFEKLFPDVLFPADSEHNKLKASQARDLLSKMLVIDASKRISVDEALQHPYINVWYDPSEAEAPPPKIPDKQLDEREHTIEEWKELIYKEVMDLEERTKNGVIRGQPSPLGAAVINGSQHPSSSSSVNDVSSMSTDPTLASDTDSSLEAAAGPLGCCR
- assayText: DELFIA kinase assay, JNK1
- Type: biochemical
- conditionInfo: DELFIA, biotinylated GST-ATF2 substrate, 10 minute pre-incubation, final ATP 7 uM

Task item: Determine from records and report IC50 for `CC(C)NC(=O)c1cccc(C(=O)NCc2ccc3sc(NC(N)=O)nc3c2)n1`
Reply: 4 to 97 nM

Task item: Name the recorded IC50 of the compound listed here: `Cc1cc(NC(=O)c2cccc(C(=O)NCc3cnn(-c4ccc(S(C)(=O)=O)cc4)c3)n2)no1`
Reply: 4 to 97 nM

Now let's try a different one.
Task item: Please report the measured IC50 for `Cc1nc2ccc(CNC(=O)c3cccc(-n4cc(I)cn4)n3)cc2[nH]1`
Reply: 102 to 959 nM
